Molecular target: LRRK2 (Homo sapiens (Human), UniProt Q5S007)
Sequence (Q5S007 whole entry G2019S): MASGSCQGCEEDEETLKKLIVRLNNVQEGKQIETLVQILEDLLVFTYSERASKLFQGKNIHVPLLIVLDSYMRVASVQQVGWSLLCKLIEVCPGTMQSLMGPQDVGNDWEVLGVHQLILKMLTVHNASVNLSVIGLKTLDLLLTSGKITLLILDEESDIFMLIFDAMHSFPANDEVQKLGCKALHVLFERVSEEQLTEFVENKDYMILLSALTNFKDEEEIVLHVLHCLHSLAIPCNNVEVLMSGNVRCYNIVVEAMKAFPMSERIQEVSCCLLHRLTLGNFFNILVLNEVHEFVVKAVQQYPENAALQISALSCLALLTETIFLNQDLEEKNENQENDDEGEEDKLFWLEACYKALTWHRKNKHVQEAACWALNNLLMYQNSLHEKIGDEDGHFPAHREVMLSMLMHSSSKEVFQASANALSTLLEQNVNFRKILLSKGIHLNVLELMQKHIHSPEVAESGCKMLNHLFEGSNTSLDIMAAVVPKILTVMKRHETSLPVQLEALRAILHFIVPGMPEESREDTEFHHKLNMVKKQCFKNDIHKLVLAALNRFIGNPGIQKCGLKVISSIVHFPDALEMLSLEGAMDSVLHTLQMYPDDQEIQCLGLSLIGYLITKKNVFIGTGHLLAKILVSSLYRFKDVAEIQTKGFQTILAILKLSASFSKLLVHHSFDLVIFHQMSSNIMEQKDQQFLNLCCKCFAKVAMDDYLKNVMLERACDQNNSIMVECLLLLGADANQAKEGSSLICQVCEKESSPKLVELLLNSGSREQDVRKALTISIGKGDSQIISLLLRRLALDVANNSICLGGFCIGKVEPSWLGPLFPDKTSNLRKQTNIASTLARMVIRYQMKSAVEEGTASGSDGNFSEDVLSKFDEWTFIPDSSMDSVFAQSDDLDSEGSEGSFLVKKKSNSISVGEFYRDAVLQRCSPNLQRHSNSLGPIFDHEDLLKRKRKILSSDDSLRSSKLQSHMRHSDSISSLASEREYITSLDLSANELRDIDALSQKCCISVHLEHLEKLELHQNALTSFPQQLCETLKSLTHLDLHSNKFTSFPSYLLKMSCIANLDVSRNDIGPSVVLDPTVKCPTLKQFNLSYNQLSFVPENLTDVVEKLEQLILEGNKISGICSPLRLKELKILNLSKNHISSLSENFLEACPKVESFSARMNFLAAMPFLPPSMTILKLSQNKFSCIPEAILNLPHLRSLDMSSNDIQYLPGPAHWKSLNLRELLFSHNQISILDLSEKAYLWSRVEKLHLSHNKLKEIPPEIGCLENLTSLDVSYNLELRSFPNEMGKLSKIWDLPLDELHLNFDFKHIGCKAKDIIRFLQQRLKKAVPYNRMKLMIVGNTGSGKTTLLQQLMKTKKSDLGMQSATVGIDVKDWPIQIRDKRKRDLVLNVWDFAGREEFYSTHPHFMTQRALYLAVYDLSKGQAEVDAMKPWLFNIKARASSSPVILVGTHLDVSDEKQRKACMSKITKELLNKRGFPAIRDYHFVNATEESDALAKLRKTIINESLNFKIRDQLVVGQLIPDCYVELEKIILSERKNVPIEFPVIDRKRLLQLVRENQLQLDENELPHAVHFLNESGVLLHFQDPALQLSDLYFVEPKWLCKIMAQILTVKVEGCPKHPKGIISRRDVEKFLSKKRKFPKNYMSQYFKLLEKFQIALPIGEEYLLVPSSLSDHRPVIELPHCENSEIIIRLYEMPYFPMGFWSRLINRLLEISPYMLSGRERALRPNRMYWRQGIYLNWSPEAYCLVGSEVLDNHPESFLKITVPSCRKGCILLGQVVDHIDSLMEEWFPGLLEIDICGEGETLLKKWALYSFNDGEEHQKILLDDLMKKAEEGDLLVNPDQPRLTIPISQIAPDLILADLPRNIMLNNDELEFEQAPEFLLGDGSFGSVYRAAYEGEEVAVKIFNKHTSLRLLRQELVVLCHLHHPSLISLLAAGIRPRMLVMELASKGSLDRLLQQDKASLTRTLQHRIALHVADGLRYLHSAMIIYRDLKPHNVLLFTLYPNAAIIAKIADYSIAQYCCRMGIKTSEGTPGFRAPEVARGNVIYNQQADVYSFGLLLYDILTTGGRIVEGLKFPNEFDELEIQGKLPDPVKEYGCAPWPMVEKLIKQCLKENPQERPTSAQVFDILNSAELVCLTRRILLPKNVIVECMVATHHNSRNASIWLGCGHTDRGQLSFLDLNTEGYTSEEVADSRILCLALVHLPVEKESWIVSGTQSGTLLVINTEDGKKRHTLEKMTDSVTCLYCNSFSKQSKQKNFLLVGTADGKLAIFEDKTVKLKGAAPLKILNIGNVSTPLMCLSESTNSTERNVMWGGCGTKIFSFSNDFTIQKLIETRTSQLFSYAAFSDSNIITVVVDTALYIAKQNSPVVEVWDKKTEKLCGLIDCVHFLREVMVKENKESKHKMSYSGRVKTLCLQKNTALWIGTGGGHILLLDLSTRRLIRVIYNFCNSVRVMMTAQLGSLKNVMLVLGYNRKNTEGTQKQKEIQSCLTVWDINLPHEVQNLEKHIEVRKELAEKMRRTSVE
Experiment: In Vitro LRRK2 Assay (LabChip 3000, fluorescently-labeled peptide substrate)
Type: biochemical
Details: ATP 130 μM, substrate 1 μM, 2 hours, ambient temperature; LRRK2 variant not given; read-out: Ki (μM), affinity values for LRRK2
test-readout: Ki (µM)

c1cncc(-c2cc(-c3n[nH]c4ccnc(OC5CCOCC5)c34)ccn2)c1    0.021

P = c1cc2n[nH]c(C3CC3)c2c(OC2CCCCC2)n1
Q = CN1CCN(c2cc(-c3n[nH]c4ccnc(OC5CCOCC5)c34)ccn2)CC1
R = Cc1cc2[nH]nc(-c3ccnc(N4CCOCC4)c3)c2c(OC2CCOCC2)n1
S = CC(C)NC(=O)c1cccc(-c2[nH]nc3ccnc(OC4CCOCC4)c23)c1
T = c1cc(-c2n[nH]c3ccnc(OC4CCOCC4)c23)c2cc[nH]c2c1
Query: Arrange the 5 compounds by rising Ki, starting with the smallest. Form entry: ranked labels (order as requested).
Result: Q, P, R, S, T

* * *

Biological target: LRRK2 (Homo sapiens (Human))
Assay: In Vitro LRRK2 Assay (LabChip 3000, fluorescently-labeled peptide substrate)
Assay type: biochemical
Details: ATP 130 μM, substrate 1 μM, 2 hours, ambient temperature; LRRK2 variant not given; read-out: Ki (μM), affinity values for LRRK2
test-readout: Ki (µM)

O=C(c1ccc(-c2[nH]nc3ccnc(OC4CCOCC4)c23)cc1)N1CCOCC1    0.076
CN(C)C(=O)c1ccc(-c2[nH]nc3ccnc(OC4CCOCC4)c23)cc1F    0.104

1 = c1cc(-c2n[nH]c3ccnc(OC4CCOC4)c23)cc(N2CCOCC2)n1 (stereo not drawn)
2 = c1cc2[nH]nc(-c3ccc4ncn(C5CCOC5)c4c3)c2c(OC2CCOCC2)n1 (stereo not drawn)
3 = CC(C)n1cc(-c2n[nH]c3ccnc(OC4CCOC4)c23)cn1 (stereo not drawn)
4 = CN(C)c1cccc(-c2[nH]nc3ccnc(OC4CCOCC4)c23)c1
Query: List from greatest to least Ki. Form entry: ranked labels (order as requested).
Result: 4, 2, 1, 3
(4: 0.05 µM, 2: 0.034 µM, 1: 0.013 µM, 3: 0.007 µM)

* * *

Target: LRRK2 (Homo sapiens (Human), UniProt Q5S007)
Test: In Vitro LRRK2 Assay (LabChip 3000, fluorescently-labeled peptide substrate)
Assay type: biochemical
Conditions: ATP 130 μM, substrate 1 μM, 2 hours, ambient temperature; LRRK2 variant not given; read-out: Ki (μM), affinity values for LRRK2
test-readout: Ki (µM)

COc1cc(Nc2[nH]nc3ccnc(OC4CCOCC4)c23)ccn1 [Example 162]    0.04
COc1nccc2[nH]nc(-c3cc(C(=O)N(C)C)n(C(C)C)c3)c12 [Example 61]    0.077
COc1nccc2n[nH]c(-c3ccc(C(=O)N4CCOCC4)c(Cl)c3)c12 [Example 109]    0.209

A = Cc1[nH]nc2cc(C3CC3)nc(OC3CCCCC3)c12 [Example 148]
B = COC(=O)c1[nH]nc2ccnc(NC3CCOCC3)c12 [Example 185]
C = Cc1[nH]nc2ccnc(OC3CCOC3)c12 (stereo not drawn) [Example 31]
Query: Arrange the 3 compounds by rising Ki, starting with the smallest. Form entry: ranked labels (order as requested).
Result: B, C, A
